biological target: T1, Human CD33 (human, UniProt P20138 18-364); assay: Scatchard analysis, [125I]-labeled antibody competed by unlabeled antibody, HEK293AD cells stably expressing human CD33
T1 construct: One molecule is used for recombinant CD33 on HEK293AD/293 cells and for endogenous human CD33 on tumor or myeloid cells; the cell is named under assay; also called huCD33; hu CD33
Consider the following binders and their measured pKd readings.
The read-out pKd is expressed as -log10 of concentration in moles per litre.

Consider the reported pKd for these binders:
{"Binder": "15G15.33 (antibody, V domains shown, Variant of 15G15) VH: QVQLVQSGAEVKKPGSSVKVSCKASGGIFSNHAISWVRQAPGQGLEWMGGIIPIFGTANYAQKFQGRVTITADESTSTAFMELSSLRSEDTAVYYCAREWADVFDIWGQGTMVTVSS VL: EIVLTQSPLSLPVTPGEPASISCRSSQSLLHSNGYNYLDWYLQKPGQSPQLLIYLGVNSVSGVPDRFSGSGSGTDFTLKISRVEAEDVGVYYCMQALQTPWTFGQGTKVEIK", "Measurement Label": "pKd", "Observed": 9.15}
{"Binder": "15G15.88 (antibody, V domains shown, Variant of 15G15) VH: QVQLVQSGAEVKKPGSSVKVSCKASGGIFSNHAISWVRQAPGQGLEWMGGIIPIFGTANYAQKFQGRVTITADESTSTAFMELSSLRSEDTAVYYCAREWADVFDIWGQGTMVTVSS VL: EIVLTQSPLSLPVTPGEPASISCRSSQSLLHSNGYNYLDWYLQKPGQSPQLLIYLGNYRVSGVPDRFSGSGSGTDFTLKISRVEAEDVGVYYCMQALQTPWTFGQGTKVEIK", "Measurement Label": "pKd", "Observed": 9.15}

// next item, pKd requested
Q) What does the data say about its pKd? Entry: 33H4 (antibody, V domains shown) VH: EVQLQQSGAELVKPGASVKMSCKAFGYTFTTFPIEWMKQSHGKSLEWIGNFHPYNDQTKYNEEFKGRAKLTIDRSSSTVYLELGRLTSDDSAVYYCARGYYYAFDFWGQGTTLTVSS VL: DIQMTQSPASLTVSLGQRATISCRASESVDSYGNSYLHWYQQKPGQPPQLLIYLASNLESGVPARFSGSGSRTDFTLTIDPVEADDAATYYCQQNNEDPWTFGGGTKVEIK
A) 8.62
